# System: Penicillium notatum
# test: Antifungal agar well diffusion assay
# condition.parameters: 20 μL water solution in 4 mm well
Please provide measured Inhibition Zone of Test Microorganism for the entries that follow.
Reply numerically in mm, unit not repeated.

Task: Looking for the measured Inhibition Zone of Test Microorganism of "CCOC(=O)c1ccc([S-])[n+]([O-])c1.[Na+]" , can you help?
Result: 15

Task: Which Inhibition Zone of Test Microorganism value belongs to CCOC(=O)c1ccc(S)[n+]([O-])c1 [Compound 1, Ethyl 6-mercaptonicotinate 1-oxide] ?
Result: 17

Task: Reported Inhibition Zone of Test Microorganism, molecule "O=C(c1ccc([S-])[n+]([O-])c1)N1CCCCC1.[K+]" : ____
Result: 15

Task: # lookup: Inhibition Zone of Test Microorganism of C[C@@H]1[C@H](O)[C@@H](C)/C=C/C=C/C=C/C=C/C=C/C=C/C=C/[C@H](O[C@@H]2O[C@H](C)[C@@H](O)[C@H](N)[C@@H]2O)C[C@@H]2O[C@](O)(C[C@@H](O)C[C@@H](O)[C@H](O)CC[C@@H](O)C[C@@H](O)CC(=O)O[C@H]1C)C[C@H](O)[C@H]2C(=O)O [Amph. B, reference compound]
Result: 12

Task: What Inhibition Zone of Test Microorganism value was documented for this molecule, "[Na+].[O-][n+]1cc(C(F)(F)F)ccc1[S-]" ?
Result: 15

// data source = patent US20260191845A1
